Task for the reader: assign each of the following compounds its reported mortality at 200 ppm.
System: Aedes aegypti (yellow fever mosquito)
ASSAY_PROCEDURE: whole plant or invertebrate
Type: in vivo
CONDITION_DETAILS: after 48 h, application rate of 200 ppm in ethanol, adult females, read-out: control of Aedes aegypti (mortality)

Q: Fill blank: measured mortality at 200 ppm of the compound CCS(=O)(=NC(=O)OC)c1cc(C(F)(F)F)cnc1-c1nc2cc(C(F)(F)F)cnc2n1C (centres unmarked) [P1.8] is ____.
Ans: ≥ 80%

Q: Report mortality at 200 ppm for CCS(=O)(=NC)c1cc(C(F)(F)F)cnc1-c1nc2cc(C(F)(F)F)cnc2n1C (centres unmarked) [P1.6] please.
Ans: ≥ 80%

Q: // lookup mortality at 200 ppm for CCC(=O)N=S(=O)(CC)c1cc(C(F)(F)F)cnc1-c1nc2cc(C(F)(F)F)cnc2n1C (centres unmarked) [P1.7]
Ans: ≥ 80%

Q: // query mortality at 200 ppm value for entry CCS(=O)(=NC(=O)C(F)(F)F)c1cc(C(F)(F)F)cnc1-c1nc2cc(C(F)(F)F)cnc2n1C (centres unmarked) [P1.3]
Ans: ≥ 80%

Q: Value lookup for mortality at 200 ppm; key = CCS(=O)(=NC(N)=O)c1cc(C(F)(F)F)cnc1-c1nc2cc(C(F)(F)F)cnc2n1C (centres unmarked) [P1.5]
Ans: ≥ 80%

meta.source: patent US9522913B2
